# CONDITION_SET: in methanol, 283.15 K
QUANTITY_NAME: solubility (mole fraction)
The answer should be a number; do not append a unit.

Assign solubility (mole fraction) to the following record: S=c1[nH]c2ccccc2s1
0.0103

====

# CONDITION_SET: in n-butanol, 295.65 K
QUANTITY_NAME: solubility (mole fraction)
The answer should be a number; do not append a unit.

Assign solubility (mole fraction) to the following record: S=c1[nH]c2ccccc2s1
0.0332

====

# CONDITION_SET: in isobutanol, 318.15 K
QUANTITY_NAME: solubility (mole fraction)
The answer should be a number; do not append a unit.

Assign solubility (mole fraction) to the following record: S=c1[nH]c2ccccc2s1
0.0411

====

# CONDITION_SET: in n-butanol, 283.15 K
QUANTITY_NAME: solubility (mole fraction)
The answer should be a number; do not append a unit.

Assign solubility (mole fraction) to the following record: S=c1[nH]c2ccccc2s1
0.0252

====

# CONDITION_SET: in isobutanol, 278.15 K
QUANTITY_NAME: solubility (mole fraction)
The answer should be a number; do not append a unit.

Assign solubility (mole fraction) to the following record: S=c1[nH]c2ccccc2s1
0.012

====

# CONDITION_SET: in chloroform, 275.65 K
QUANTITY_NAME: solubility (mole fraction)
The answer should be a number; do not append a unit.

Assign solubility (mole fraction) to the following record: S=c1[nH]c2ccccc2s1
0.0072

====

# CONDITION_SET: in isopropanol, 285.65 K
QUANTITY_NAME: solubility (mole fraction)
The answer should be a number; do not append a unit.

Assign solubility (mole fraction) to the following record: S=c1[nH]c2ccccc2s1
0.0148

====

# CONDITION_SET: in toluene, 280.65 K
QUANTITY_NAME: solubility (mole fraction)
The answer should be a number; do not append a unit.

Assign solubility (mole fraction) to the following record: S=c1[nH]c2ccccc2s1
0.00236

====

# CONDITION_SET: in methanol, 318.15 K
QUANTITY_NAME: solubility (mole fraction)

Assign solubility (mole fraction) to the following record: S=c1[nH]c2ccccc2s1
0.0289

====

# CONDITION_SET: in chloroform, 288.15 K
QUANTITY_NAME: solubility (mole fraction)
The answer should be a number; do not append a unit.

Assign solubility (mole fraction) to the following record: S=c1[nH]c2ccccc2s1
0.00972

====

# CONDITION_SET: in isobutanol, 285.65 K
QUANTITY_NAME: solubility (mole fraction)

Assign solubility (mole fraction) to the following record: S=c1[nH]c2ccccc2s1
0.0155

====

# CONDITION_SET: in 2-butanone, 283.15 K
QUANTITY_NAME: solubility (mole fraction)
The answer should be a number; do not append a unit.

Assign solubility (mole fraction) to the following record: S=c1[nH]c2ccccc2s1
0.0807

====

# CONDITION_SET: in methanol, 313.15 K
QUANTITY_NAME: solubility (mole fraction)

Assign solubility (mole fraction) to the following record: S=c1[nH]c2ccccc2s1
0.0252

====

# CONDITION_SET: in ethyl acetate, 300.65 K
QUANTITY_NAME: solubility (mole fraction)
The answer should be a number; do not append a unit.

Assign solubility (mole fraction) to the following record: S=c1[nH]c2ccccc2s1
0.0419

====

# CONDITION_SET: in isopropanol, 295.65 K
QUANTITY_NAME: solubility (mole fraction)
The answer should be a number; do not append a unit.

Assign solubility (mole fraction) to the following record: S=c1[nH]c2ccccc2s1
0.0208

====

# CONDITION_SET: in toluene, 278.15 K
QUANTITY_NAME: solubility (mole fraction)
The answer should be a number; do not append a unit.

Assign solubility (mole fraction) to the following record: S=c1[nH]c2ccccc2s1
0.0022

====

# CONDITION_SET: in chloroform, 295.65 K
QUANTITY_NAME: solubility (mole fraction)

Assign solubility (mole fraction) to the following record: S=c1[nH]c2ccccc2s1
0.0115

====

# CONDITION_SET: in acetonitrile, 293.15 K
QUANTITY_NAME: solubility (mole fraction)
The answer should be a number; do not append a unit.

Assign solubility (mole fraction) to the following record: S=c1[nH]c2ccccc2s1
0.00819

====

# CONDITION_SET: in ethyl acetate, 295.65 K
QUANTITY_NAME: solubility (mole fraction)
The answer should be a number; do not append a unit.

Assign solubility (mole fraction) to the following record: S=c1[nH]c2ccccc2s1
0.0389

====

# CONDITION_SET: in toluene, 295.65 K
QUANTITY_NAME: solubility (mole fraction)
The answer should be a number; do not append a unit.

Assign solubility (mole fraction) to the following record: S=c1[nH]c2ccccc2s1
0.00354

====

# CONDITION_SET: in n-propanol, 273.15 K
QUANTITY_NAME: solubility (mole fraction)
The answer should be a number; do not append a unit.

Assign solubility (mole fraction) to the following record: S=c1[nH]c2ccccc2s1
0.015

====

# CONDITION_SET: in chloroform, 300.65 K
QUANTITY_NAME: solubility (mole fraction)
The answer should be a number; do not append a unit.

Assign solubility (mole fraction) to the following record: S=c1[nH]c2ccccc2s1
0.0128

====

# CONDITION_SET: in acetonitrile, 303.15 K
QUANTITY_NAME: solubility (mole fraction)

Assign solubility (mole fraction) to the following record: S=c1[nH]c2ccccc2s1
0.011

====

# CONDITION_SET: in chloroform, 273.15 K
QUANTITY_NAME: solubility (mole fraction)

Assign solubility (mole fraction) to the following record: S=c1[nH]c2ccccc2s1
0.00683

====

# CONDITION_SET: in methanol, 295.65 K
QUANTITY_NAME: solubility (mole fraction)

Assign solubility (mole fraction) to the following record: S=c1[nH]c2ccccc2s1
0.0153

====

# CONDITION_SET: in toluene, 303.15 K
QUANTITY_NAME: solubility (mole fraction)
The answer should be a number; do not append a unit.

Assign solubility (mole fraction) to the following record: S=c1[nH]c2ccccc2s1
0.00427

====

# CONDITION_SET: in toluene, 315.65 K
QUANTITY_NAME: solubility (mole fraction)
The answer should be a number; do not append a unit.

Assign solubility (mole fraction) to the following record: S=c1[nH]c2ccccc2s1
0.00572

====

# CONDITION_SET: in 2-butanone, 293.15 K
QUANTITY_NAME: solubility (mole fraction)
The answer should be a number; do not append a unit.

Assign solubility (mole fraction) to the following record: S=c1[nH]c2ccccc2s1
0.093

====

# CONDITION_SET: in acetonitrile, 280.65 K
QUANTITY_NAME: solubility (mole fraction)
The answer should be a number; do not append a unit.

Assign solubility (mole fraction) to the following record: S=c1[nH]c2ccccc2s1
0.00553

====

# CONDITION_SET: in n-butanol, 275.65 K
QUANTITY_NAME: solubility (mole fraction)
The answer should be a number; do not append a unit.

Assign solubility (mole fraction) to the following record: S=c1[nH]c2ccccc2s1
0.0211

====

# CONDITION_SET: in acetonitrile, 275.65 K
QUANTITY_NAME: solubility (mole fraction)
The answer should be a number; do not append a unit.

Assign solubility (mole fraction) to the following record: S=c1[nH]c2ccccc2s1
0.00467

====

# CONDITION_SET: in toluene, 305.65 K
QUANTITY_NAME: solubility (mole fraction)

Assign solubility (mole fraction) to the following record: S=c1[nH]c2ccccc2s1
0.00454

====

# CONDITION_SET: in chloroform, 285.65 K
QUANTITY_NAME: solubility (mole fraction)
The answer should be a number; do not append a unit.

Assign solubility (mole fraction) to the following record: S=c1[nH]c2ccccc2s1
0.00922
